Test system: dog breast cancer cells, grown as organoids
assay_notes: Growth of canine mammary tumor organoids
Type: cell-based
settings: Canis lupus familiaris; organoids in Matrigel; read-out: EC50 growth inhibition of dog breast cancer organoids
quantity: EC50

**Query** Field request: EC50 | item: Cc1nc(N)nc(N)c1C=CC1(c2ccc(C(F)(F)F)cc2)CC1
**Result** ~20 nM

---

Tested on: MDA-MB-231
assay_notes: Luminescent cell viability assay (ATP)
Type: cell-based
settings: Homo sapiens, 46 hours, luciferase signal normalized to untreated cells = 1, read-out: Relative viability MDA-MB-231
Description: Compounds were assessed for effects on viability of the breast cancer cell lines MDA-MB-231 and MDA-MB-453. The cells were incubated with the compounds for 46 hours at a concentration of 5 uM. DMSO was used as vehicle control. Cell viability was assessed after approximately 46 hours by using a luminescent cell viability assay. This assay generates a luminescent signal, proportional to the amount of ATP that is present as a readout of metabolically active cells. […]
quantity: viability at 5 µM (%)
Return type: number; implicit unit %.

Check out these entries, answers already filled in.
INSERT INTO results (smiles_representation, quantity, unit_tag, reading) VALUES
  ('COc1cc(OC)cc(C(C)(C)C=Cc2c(C)nc(N)nc2N)c1', 'viability at 5 µM', '%', 91.8),
  ('Cc1nc(N)nc(N)c1C=CC1(c2ccc(Cl)cc2)CC1', 'viability at 5 µM', '%', 91.2);

Pending molecule:
**Query** Given Cc1nc(N)nc(N)c1C=CC1(c2ccccc2C(F)(F)F)CC1 , state its recorded viability at 5 µM.
**Result** 87.9

---

Test system: MDA-MB-231
assay_notes: Luminescent cell viability assay (ATP)
Type: cell-based
settings: Homo sapiens, 46 hours, luciferase signal normalized to untreated cells = 1, read-out: Relative viability MDA-MB-231
Parameter viability at 5 µM: see the listing below.
Report the value in % with no unit label.

As a guide, the following entries are already answered.
INSERT INTO assay_data (compound, tested_on, quantity, unit_tag, reading) VALUES
  ('CC(C)c1nc(N)nc(N)c1C=CC(C)(C)c1ccc(C(F)(F)F)cc1', 'MDA-MB-231', 'viability at 5 µM', '%', 89.8),
  ('Cc1nc(N)nc(N)c1C=CC(C)(C)c1cc(Cl)cc(Cl)c1', 'MDA-MB-231', 'viability at 5 µM', '%', 89.7),
  ('Cc1nc(N)nc(N)c1CCC(C)c1ccc(F)cc1 (stereo not shown)', 'MDA-MB-231', 'viability at 5 µM', '%', 87.7);

**Query** What measured viability at 5 µM is associated with COc1ccc(C(C)(C)C=Cc2c(C)nc(N)nc2N)cc1 on MDA-MB-231?
**Result** 87.5

**Query** Return viability at 5 µM measured with MDA-MB-231 given this compound: Cc1nc(N)nc(N)c1C=CC(C)c1ccc(C(F)(F)F)cc1 (stereo not shown)
**Result** 94.2

**Query** Field: viability at 5 µM (MDA-MB-231). Entry: Cc1nc(N)nc(N)c1C=CC1(c2ccc(N3CCOCC3)cc2)CC1
**Result** 91.6

**Query** Query the reported viability at 5 µM for MDA-MB-231; item: Cc1nc(N)nc(N)c1C=CC(C)(C)c1ccc(C(F)(F)F)cc1
**Result** 91.8

**Query** Request - read-out viability at 5 µM | tested on MDA-MB-231 | compound Cc1nc(N)nc(N)c1C=CC1(c2ccc(OC(F)(F)F)cc2)CC1
**Result** 87.8

**Query** GET /values?readout=viability at 5 µM&system=MDA-MB-231&item= Cc1nc(N)nc(N)c1C#CC1(c2cccc(C(F)(F)F)c2)CC1
**Result** 105

**Query** Give MDA-MB-231 viability at 5 µM for Cc1nc(N)nc(N)c1C=CC(C)(C)c1ccc(Cl)c(Cl)c1
**Result** 79.6

**Query** Return viability at 5 µM measured with MDA-MB-231 given this compound: Cc1nc(N)nc(NCc2ccccn2)c1C=CC(C)(C)c1ccc(C(F)(F)F)cc1
**Result** 74.1

**Query** Short answer please: viability at 5 µM, MDA-MB-231, entry Cc1nc(N)nc(N)c1C=CC(C)(C)c1ccc(S(C)(=O)=O)cc1
**Result** 64.2

**Query** Param readout = viability at 5 µM; param system = MDA-MB-231; param query = Cc1nc(N)nc(N)c1C=CC(C)c1cccc(Cl)c1 (stereo not shown) ; response: value
**Result** 90.5
